# assay system: D(2) dopamine receptor (Bos taurus)
# test details: Binding affinity of [3H]NPA to striatal Dopamine receptor D2
measured metric: IC50 (nM)
Answers are plain numbers, in nM.

-- ask Write down IC50 measured for item CCCN(CCC)[C@@H]1Cc2cc(O)ccc2C[C@H]1C (racemic)
-- reply 1020

====

# assay system: D(2) dopamine receptor (Bos taurus, UniProt P20288)
# Sequence (P20288 whole entry): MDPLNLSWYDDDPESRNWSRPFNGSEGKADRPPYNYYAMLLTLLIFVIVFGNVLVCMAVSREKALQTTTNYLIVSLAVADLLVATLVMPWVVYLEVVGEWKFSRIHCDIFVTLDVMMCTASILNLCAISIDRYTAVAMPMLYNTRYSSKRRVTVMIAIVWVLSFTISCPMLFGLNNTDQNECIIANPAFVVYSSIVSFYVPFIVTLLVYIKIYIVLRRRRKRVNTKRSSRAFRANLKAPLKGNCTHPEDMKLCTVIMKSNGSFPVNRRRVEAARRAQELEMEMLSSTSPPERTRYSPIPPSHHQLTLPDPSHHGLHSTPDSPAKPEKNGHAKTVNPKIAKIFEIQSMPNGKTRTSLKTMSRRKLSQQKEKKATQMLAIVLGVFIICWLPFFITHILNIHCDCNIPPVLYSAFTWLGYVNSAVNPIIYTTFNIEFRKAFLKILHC
# test details: Binding affinity of [3H]spiroperidol to striatal Dopamine receptor D2 binding sites
measured metric: IC50 (µM)
Numbers only, in µM.

-- ask Write down IC50 measured for item CCCN(CCC)[C@@H]1Cc2cc(O)ccc2C[C@H]1C (racemic)
-- reply 26.9
